biological target: human emopamil binding protein and human 7-dehydrocholesterol reductase (hEBP-DHCR7) (Homo sapiens, UniProt Q15125)
Sequence (Q15125 whole entry): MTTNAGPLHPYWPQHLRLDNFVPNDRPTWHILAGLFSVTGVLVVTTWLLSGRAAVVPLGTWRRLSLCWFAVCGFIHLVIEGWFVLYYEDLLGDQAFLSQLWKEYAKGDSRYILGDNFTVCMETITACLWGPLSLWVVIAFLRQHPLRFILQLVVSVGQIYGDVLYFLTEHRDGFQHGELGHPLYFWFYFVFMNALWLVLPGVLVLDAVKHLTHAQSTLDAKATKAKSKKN
Property Measured: pKi
// scale note: pKi = -log10(conc_M); give the bare number

Query: Name the recorded pKi of the item CC(C)n1nc(-c2cncc(C(F)(F)F)c2)cc1[C@H]1[C@@H]2C[C@@H](N3CC4(C3)CS(=O)(=O)C4)C[C@@H]21 (single isomer, unassigned) in your answer.
Response: 7.27

Query: Name the recorded pKi of the item O=S1(=O)CC2(CCN([C@H]3C[C@@H]4[C@H](C3)[C@H]4c3cc(C(F)(F)F)n(CC(F)F)n3)CC2)C1 (single isomer, unassigned) in your answer.
Response: 8.16

Query: Quickly give me recorded pKi for CC(C)(C)n1nc(C(F)(F)F)cc1[C@H]1[C@@H]2C[C@H](N3CCC4(C3)CS(=O)(=O)C4)C[C@@H]21 (single isomer, unassigned)
Response: 7.92

Query: Fill in pKi for record CC(C)n1nc(-c2cccc(C(F)(F)F)n2)cc1[C@H]1[C@@H]2C[C@H](N3CCC4(CC3)CS(=O)(=O)C4)C[C@@H]21 (single isomer, unassigned)
Response: 7.90

Query: Please report the measured pKi for CC(C)n1nc([C@H]2CC[C@@](O)(C(F)(F)F)CC2)cc1[C@H]1[C@@H]2C[C@@H](N3CCC4(C3)CS(=O)(=O)C4)C[C@@H]21 (single isomer, unassigned)
Response: 6.26

Query: Give reported pKi value for C[C@H](C(F)F)n1nc(C(F)(F)F)cc1[C@H]1[C@@H]2C[C@@H](N3CCC4(CC3)CS(=O)(=O)C4)C[C@@H]21 (racemic)
Response: 7.26

Query: Assign pKi to the following record: CC(C)n1nc(-c2cncc(C(F)(F)F)c2)nc1[C@H]1[C@@H]2C[C@H](N3CCC4(C3)CS(=O)(=O)C4)C[C@@H]21 (single isomer, unassigned)
Response: 6.94

Query: State, in one line, measured pKi of "CC(C)n1nc(-c2cccc(C(F)(F)F)c2)nc1[C@H]1[C@@H]2C[C@H](N3CCC4(C3)CS(=O)(=O)C4)C[C@@H]21"
Response: 7.99

Query: Look up and state reported pKi for CC(C)n1nc(-c2cncc(C(F)(F)F)c2)cc1[C@H]1[C@@H]2C[C@@H](N3CC[C@@]4(CCS(=O)(=O)C4)C3)C[C@@H]21 (single isomer, unassigned)
Response: 7.76

---

tested on: EpiSC-derived OPCs; assay: In vitro phenotypic screening of OPCs (MBP high-content imaging); assay type: cell-based; conditions: Mus musculus, 72 h; percentage of MBP-positive oligodendrocytes, 3 days, 0.5 nM to 1000 nM; read-out: OPC EC50
Property Measured: pEC50
// pEC50 is dimensionless: -log10 of concentration (M)

Query: Look up and state reported pEC50 for CC(C)n1nc(-c2ccnc(C(F)(F)F)c2)cc1[C@H]1[C@@H]2C[C@H](N3CCC4(C3)CS(=O)(=O)C4)C[C@@H]21 (single isomer, unassigned)
Response: 7.89

Query: Please report pEC50 for the following molecule: "CC(C)n1nc(-c2ccc(C(F)(F)F)cc2)cc1[C@H]1[C@@H]2C[C@H](N3CCC4(C3)CS(=O)(=O)C4)C[C@@H]21"
Response: 8.10

Query: Quote pEC50 reported for "CC(C)n1nc(C2(C(F)(F)F)CC2)cc1[C@H]1[C@@H]2C[C@H](N3CCC4(C3)CS(=O)(=O)C4)C[C@@H]21" please.
Response: 7.54

Query: # return recorded pEC50 for input CC(C)n1nc(-c2cncc(C(F)(F)F)c2)nc1[C@H]1[C@@H]2C[C@@H](N3CCC4(C3)CS(=O)(=O)C4)C[C@@H]21 (single isomer, unassigned)
Response: 7.62

Query: Find the measured pEC50 of "CCn1nc(-c2ccccn2)cc1[C@H]1[C@@H]2C[C@H](N3CCC4(C3)CS(=O)(=O)C4)C[C@@H]21" and report it.
Response: 7.04
